TARGET_SYSTEM: CYP3A4 (Homo sapiens, UniProt P08684)
Sequence (P08684 whole entry): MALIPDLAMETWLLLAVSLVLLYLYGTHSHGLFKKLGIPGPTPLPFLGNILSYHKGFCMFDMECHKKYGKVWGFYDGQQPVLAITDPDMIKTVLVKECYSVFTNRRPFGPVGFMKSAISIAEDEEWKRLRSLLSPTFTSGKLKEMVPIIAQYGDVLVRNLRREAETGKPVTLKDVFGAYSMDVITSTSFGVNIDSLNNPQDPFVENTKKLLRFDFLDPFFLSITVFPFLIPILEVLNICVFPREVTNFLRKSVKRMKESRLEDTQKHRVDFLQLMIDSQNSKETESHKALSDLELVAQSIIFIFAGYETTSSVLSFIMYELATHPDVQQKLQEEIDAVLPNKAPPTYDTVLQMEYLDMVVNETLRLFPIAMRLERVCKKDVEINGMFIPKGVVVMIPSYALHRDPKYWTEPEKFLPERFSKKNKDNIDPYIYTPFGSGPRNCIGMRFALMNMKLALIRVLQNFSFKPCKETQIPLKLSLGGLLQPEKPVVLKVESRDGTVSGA
PROTOCOL_TEXT: Inhibition of CYP3A4 (unknown origin) at 10 uM
ASSAY_READOUT: inhibition at 10 µM

inhibition at 10 µM reading for CS(=O)(=O)N1CCC(C(O)(c2cncnc2Nc2ccc(F)cc2)C(F)(F)F)CC1 (racemic) : 4.1%

* * *

TARGET_SYSTEM: CYP2C9 (Homo sapiens, UniProt P11712)
Sequence (P11712 whole entry): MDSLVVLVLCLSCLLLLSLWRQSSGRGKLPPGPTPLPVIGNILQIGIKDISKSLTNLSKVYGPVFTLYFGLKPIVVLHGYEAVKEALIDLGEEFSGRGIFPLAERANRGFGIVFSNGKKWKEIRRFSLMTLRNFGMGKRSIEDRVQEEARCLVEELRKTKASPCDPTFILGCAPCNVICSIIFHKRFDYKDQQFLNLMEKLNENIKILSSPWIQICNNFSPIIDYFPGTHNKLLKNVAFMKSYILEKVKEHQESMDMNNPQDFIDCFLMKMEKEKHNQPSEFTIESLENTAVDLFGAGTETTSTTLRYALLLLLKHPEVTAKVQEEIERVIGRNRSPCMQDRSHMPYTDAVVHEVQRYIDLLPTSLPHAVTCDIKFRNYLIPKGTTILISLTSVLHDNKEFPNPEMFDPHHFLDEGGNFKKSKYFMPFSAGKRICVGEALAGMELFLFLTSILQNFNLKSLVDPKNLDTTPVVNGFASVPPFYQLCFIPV
PROTOCOL_TEXT: Inhibition of CYP2C9 (unknown origin) at 10 uM
Format: ADME
ASSAY_READOUT: inhibition at 10 µM (%)
Quick note: give the figure in %, leave out the unit.

Per the records, this compound ( CS(=O)(=O)N1CCC(C(O)(c2cncnc2Nc2ccc(F)cc2)C(F)(F)F)CC1 (racemic) ) has inhibition at 10 µM equal to 3.4

* * *

PROTOCOL_TEXT: Half life in cynomolgus monkey at 3 mg/kg, po administered as single dose
Type: ADME, organism-based, Macaca fascicularis
EXPERIMENTAL_SETUP: in vivo
ASSAY_READOUT: half-life (h)
Number in h, nothing else.

Measured half-life of CS(=O)(=O)N1CCC(C(O)(c2cncnc2Nc2ccc(F)cc2)C(F)(F)F)CC1 (racemic) : 2.31

* * *

TARGET_SYSTEM: Cytochrome P450 11B1, mitochondrial (Homo sapiens, UniProt P15538)
Sequence (P15538 whole entry): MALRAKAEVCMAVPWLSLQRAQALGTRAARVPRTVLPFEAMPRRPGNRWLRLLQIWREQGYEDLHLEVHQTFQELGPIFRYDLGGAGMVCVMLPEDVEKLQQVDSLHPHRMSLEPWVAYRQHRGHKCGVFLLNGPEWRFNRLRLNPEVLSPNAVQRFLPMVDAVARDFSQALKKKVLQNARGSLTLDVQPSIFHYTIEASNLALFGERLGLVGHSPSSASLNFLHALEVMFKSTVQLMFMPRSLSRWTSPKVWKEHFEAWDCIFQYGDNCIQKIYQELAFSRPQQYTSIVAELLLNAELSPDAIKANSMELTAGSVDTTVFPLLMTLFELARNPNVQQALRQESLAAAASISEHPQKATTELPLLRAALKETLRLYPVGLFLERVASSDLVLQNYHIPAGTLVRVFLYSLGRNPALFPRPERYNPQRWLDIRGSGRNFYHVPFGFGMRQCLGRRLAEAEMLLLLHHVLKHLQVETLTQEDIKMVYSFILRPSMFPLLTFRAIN
PROTOCOL_TEXT: Inhibition of human CYP11B1 expressed in HEK293A cells
Entries and their measured IC50 follow.
Give the quantity in nM, number only.

# count of solved cases: 3
CS(=O)(=O)N1CCC(C(O)c2cncnc2Nc2cccc3ccccc23)CC1 (racemic)
110
CS(=O)(=O)N1CCC(C(O)c2cncnc2Nc2ccccc2)CC1 (racemic)
42
CS(=O)(=O)N1CCC(C(O)(c2cncnc2Nc2ccc(F)cc2)C(F)(F)F)CC1 (racemic)
2

Attention now shifts to the item below.
Looking up CC(C)C(O)(c1cncnc1Nc1ccc(F)cc1)C1CCN(S(C)(=O)=O)CC1 (racemic) , I see its IC50 listed as 13

* * *

TARGET_SYSTEM: CYP19 (aromatase) (Homo sapiens)
Sequence (P11511 whole entry): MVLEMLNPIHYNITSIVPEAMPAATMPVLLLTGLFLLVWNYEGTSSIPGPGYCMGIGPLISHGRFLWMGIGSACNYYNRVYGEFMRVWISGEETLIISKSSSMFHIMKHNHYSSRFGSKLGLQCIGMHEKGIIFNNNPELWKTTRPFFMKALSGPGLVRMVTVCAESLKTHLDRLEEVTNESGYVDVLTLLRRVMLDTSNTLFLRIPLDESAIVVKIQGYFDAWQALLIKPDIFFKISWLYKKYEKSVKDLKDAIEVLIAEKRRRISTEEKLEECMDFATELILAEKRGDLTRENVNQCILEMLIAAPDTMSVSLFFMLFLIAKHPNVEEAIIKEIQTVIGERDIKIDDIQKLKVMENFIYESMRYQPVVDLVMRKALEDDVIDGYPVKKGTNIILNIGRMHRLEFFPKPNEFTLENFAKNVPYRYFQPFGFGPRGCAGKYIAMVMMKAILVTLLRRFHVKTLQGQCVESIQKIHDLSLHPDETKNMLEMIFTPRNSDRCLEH
PROTOCOL_TEXT: Inhibition of CYP19 (unknown origin) at 1 uM
ASSAY_READOUT: inhibition at 1 µM (%)
# output: bare number, implied unit %

Log: CYP19 (aromatase) (Homo sapiens), compound CS(=O)(=O)N1CCC(C(O)(c2cncnc2Nc2ccc(F)cc2)C(F)(F)F)CC1 (racemic) , inhibition at 1 µM = 16

* * *

PROTOCOL_TEXT: Solubility of the compound at pH 6.8
Format: physicochemical
EXPERIMENTAL_SETUP: buffer
ASSAY_READOUT: solubility
Respond with a number, then the unit of measure.

For reference, reported solubility for CS(=O)(=O)N1CCC(C(O)(c2cncnc2Nc2ccc(F)cc2)C(F)(F)F)CC1 (racemic) stands at 260 µg/mL

* * *

TARGET_SYSTEM: Cytochrome P450 11B2, mitochondrial (Rattus norvegicus, UniProt P30099)
Sequence (P30099 whole entry): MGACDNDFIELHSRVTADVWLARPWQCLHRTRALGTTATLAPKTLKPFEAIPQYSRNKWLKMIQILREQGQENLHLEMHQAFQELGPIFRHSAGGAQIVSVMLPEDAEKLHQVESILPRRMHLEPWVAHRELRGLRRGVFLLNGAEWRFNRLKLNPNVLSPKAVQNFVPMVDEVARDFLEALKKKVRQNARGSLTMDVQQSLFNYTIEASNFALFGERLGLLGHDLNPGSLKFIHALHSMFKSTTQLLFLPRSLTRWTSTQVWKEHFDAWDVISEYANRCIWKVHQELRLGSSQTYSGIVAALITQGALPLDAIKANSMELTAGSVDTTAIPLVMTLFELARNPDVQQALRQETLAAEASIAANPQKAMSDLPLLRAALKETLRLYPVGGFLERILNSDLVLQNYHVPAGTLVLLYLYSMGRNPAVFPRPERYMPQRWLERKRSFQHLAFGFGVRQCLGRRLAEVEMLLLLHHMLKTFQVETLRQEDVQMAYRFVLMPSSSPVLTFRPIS
PROTOCOL_TEXT: Inhibition of rat CYP11B2
ASSAY_READOUT: pIC50
Conceptually, pIC50 converts a concentration in mol/L into minus its log10.

Per the record, CS(=O)(=O)N1CCC(C(O)c2cncnc2Nc2ccc(F)cc2)CC1 (racemic) has pIC50 of 6.52

* * *

Examples of compounds with documented pIC50 follow.
Target chain: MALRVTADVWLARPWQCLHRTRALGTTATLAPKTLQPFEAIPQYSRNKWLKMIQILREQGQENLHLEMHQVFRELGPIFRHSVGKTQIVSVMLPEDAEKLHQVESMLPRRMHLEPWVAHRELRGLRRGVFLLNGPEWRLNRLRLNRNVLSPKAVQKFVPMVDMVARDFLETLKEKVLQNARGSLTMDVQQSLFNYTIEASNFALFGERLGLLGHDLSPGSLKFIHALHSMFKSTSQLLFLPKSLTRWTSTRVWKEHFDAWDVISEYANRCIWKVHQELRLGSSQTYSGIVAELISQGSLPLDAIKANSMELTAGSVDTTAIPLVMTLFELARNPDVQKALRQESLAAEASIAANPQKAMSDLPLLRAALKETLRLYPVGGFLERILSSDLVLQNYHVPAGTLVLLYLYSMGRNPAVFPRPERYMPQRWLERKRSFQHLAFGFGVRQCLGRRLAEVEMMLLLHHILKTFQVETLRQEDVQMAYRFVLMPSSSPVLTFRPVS
The meaning of pIC50 here: minus log10 of the concentration in molar units.

CCCCC(O)(c1cncnc1Nc1ccc(F)cc1)C1CCN(S(C)(=O)=O)CC1 (racemic)
6.77
CS(=O)(=O)N1CCC(C(O)c2cncnc2Nc2ccc(C#N)cc2)CC1 (racemic)
5.87
CS(=O)(=O)N1CCC(CC(O)c2cncnc2Nc2ccc(F)cc2)CC1 (racemic)
5.50
CC(O)(c1cncnc1Nc1ccc(F)cc1)C1CCN(S(C)(=O)=O)CC1 (racemic)
6.99
CS(=O)(=O)N1CCC(C(O)c2cncnc2Nc2ccc(C(F)(F)F)cc2)CC1 (racemic)
6.10
CCCC(O)c1cncnc1Nc1ccc(F)cc1 (racemic)
6.04
CS(=O)(=O)N1CCC(O)(c2cncnc2Nc2ccc(F)cc2)CC1
5.86
Cc1ccc(Nc2ncncc2C(O)C2CCN(S(C)(=O)=O)CC2)cc1 (racemic)
5.72

Reported pIC50 ( CS(=O)(=O)N1CCC(C(O)c2cncnc2Nc2ccccc2)CC1 (racemic) ) = 5.76

Query CS(=O)(=O)N1CCC(C(O)c2cncnc2Nc2cccc3ccccc23)CC1 (racemic) yields pIC50 of 5.56

Lab book: pIC50 of CS(=O)(=O)N1CCC(C(O)c2cncnc2Nc2ccc(F)cc2)CC1 (racemic) noted as 6.52

* * *

TARGET_SYSTEM: CYP2D6 (Homo sapiens)
Sequence (P10635 whole entry): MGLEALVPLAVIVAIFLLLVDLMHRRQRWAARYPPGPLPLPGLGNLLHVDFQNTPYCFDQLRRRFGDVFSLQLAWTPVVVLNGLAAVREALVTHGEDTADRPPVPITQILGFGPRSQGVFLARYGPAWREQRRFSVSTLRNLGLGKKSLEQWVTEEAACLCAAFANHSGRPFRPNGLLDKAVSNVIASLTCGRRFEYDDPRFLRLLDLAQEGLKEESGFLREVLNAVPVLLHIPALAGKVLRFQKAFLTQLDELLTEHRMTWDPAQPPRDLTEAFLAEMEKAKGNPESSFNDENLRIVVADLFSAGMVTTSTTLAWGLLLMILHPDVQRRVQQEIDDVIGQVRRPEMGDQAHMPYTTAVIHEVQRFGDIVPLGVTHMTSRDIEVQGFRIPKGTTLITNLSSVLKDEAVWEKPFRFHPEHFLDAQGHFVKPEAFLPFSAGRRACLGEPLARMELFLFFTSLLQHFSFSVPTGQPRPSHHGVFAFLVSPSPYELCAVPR
PROTOCOL_TEXT: Inhibition of CYP2D6 (unknown origin) at 10 uM
Assay type: ADME
ASSAY_READOUT: inhibition at 10 µM (%)
Answer format: numeric, % implied, no suffix.

Field inhibition at 10 µM (system: CYP2D6 (Homo sapiens)) for entry CS(=O)(=O)N1CCC(C(O)(c2cncnc2Nc2ccc(F)cc2)C(F)(F)F)CC1 (racemic) = 5.8

* * *

TARGET_SYSTEM: UniProt P19099
Sequence (P19099 whole entry): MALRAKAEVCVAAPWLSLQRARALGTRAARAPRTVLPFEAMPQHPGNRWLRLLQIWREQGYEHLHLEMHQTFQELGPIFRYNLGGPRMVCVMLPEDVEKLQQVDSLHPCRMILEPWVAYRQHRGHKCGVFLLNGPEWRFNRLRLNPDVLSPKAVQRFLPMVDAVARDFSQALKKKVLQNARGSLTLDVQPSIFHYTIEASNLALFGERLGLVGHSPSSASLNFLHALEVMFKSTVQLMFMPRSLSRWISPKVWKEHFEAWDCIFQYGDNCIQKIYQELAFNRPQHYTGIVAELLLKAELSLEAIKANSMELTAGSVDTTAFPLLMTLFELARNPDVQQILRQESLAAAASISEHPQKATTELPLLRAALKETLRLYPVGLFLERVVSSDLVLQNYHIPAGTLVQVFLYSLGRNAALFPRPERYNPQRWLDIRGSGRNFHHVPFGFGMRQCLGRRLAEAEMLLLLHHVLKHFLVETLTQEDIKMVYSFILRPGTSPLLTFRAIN
ASSAY_READOUT: pIC50
Reminder that pIC50 is minus the log10 of a molar concentration.

These recorded examples may help you get a feel for the data.
CC(C)C(O)(c1cncnc1Nc1ccc(F)cc1)C1CCN(S(C)(=O)=O)CC1 (racemic)
8.30
OC(c1ccccc1)c1cncnc1Nc1ccc(F)cc1 (racemic)
7.52
Cc1ccc(Nc2ncncc2C(O)C2CCN(S(C)(=O)=O)CC2)cc1 (racemic)
8.10
CS(=O)(=O)N1CCC(C(O)c2cncnc2Nc2ccccc2)CC1 (racemic)
7.82
CS(=O)(=O)N1CCC(O)(c2cncnc2Nc2ccc(F)cc2)CC1
6.52

UniProt P19099 pIC50 of CS(=O)(=O)N1CCC(C(O)c2cncnc2Nc2cccc3ccccc23)CC1 (racemic) is 8.10

Reported UniProt P19099 pIC50 for item CCCC(O)c1cncnc1Nc1ccc(F)cc1 (racemic) was 7.12

The molecule CS(=O)(=O)N1CCC(C(O)c2cncnc2Nc2ccc(F)cc2)C1 (mixture of isomers) , tested on UniProt P19099, showed pIC50 of 6.84
